# SUBJECT OF TEST: T1, CT45-IP alanine variant, position 5 peptide on HLA-A*02:01 (human)
# T1 peptide: KIFEALEGV
# EXPERIMENT: killing
PROPERTY LABEL: binding result

TCR-12 (TCR, V domains shown) Valpha: QLLEQSPQFLSIQEGENLTVYCNSSSVFSSLQWYRQEPGEGPVLLVTVVTGGEVKKLKRLTFQFGDARKDSSLHITAAQPGDTGLYLCAGGLSDSYDKVIFGPGTSLSVIP Vbeta: EVTQTPKHLVMGMTNKKSLKCEQHMGHRAMYWYKQKAKKPPELMFVYSYEKLSINESVPSRFSPECPNSSLLNLHLHALQPEDSALYLCASSQGVGQEYGYTFGSGTRLTVV: recognises
TCR-13 (TCR, V domains shown) Valpha: QKITQTQPGMFVQEKEAVTLDCTYDTSDQSYGLFWYKQPSSGEMIFLIYQGSYDEQNATEGRYSLNFQKARKSANLVISASQLGDSAMYFCAMSDPIMDTGRRALTFGSGTRLQVQP Vbeta: GITQSPKYLFRKEGQNVTLSCEQNLNHDAMYWYRQDPGQGLRLIYYSQIVNDFQKGDIAEGYSVSREKKESFPLTVTSAQKNPTAFYLCASKSRGPNLADTQYFGPGTRLTVL: recognises
TCR-6 (TCR, V domains shown) Valpha: QKEVEQDPGPLSVPEGAIVSLNCTYSNSAFQYFMWYRQYSRKGPELLMYTYSSGNKEDGRFTAQVDKSSKYISLFIRDSQPSDSATYLCAMSGNSGARDYGNNRLAFGKGNQVVVIP Vbeta: EVTQTPKHLVMGMTNKKSLKCEQHMGHRAMYWYKQKAKKPPELMFVYSYEKLSINESVPSRFSPECPNSSLLNLHLHALQPEDSALYLCASATWEEAGPYNEQFFGPGTRLTVL: recognises
